Numbers sourced from patent US20180155413A1.

biological target: HA of B/Sichuan/379/99 (yamagata) (influenza B virus); experiment: cell-based or functional assay
measuredAttribute: Neutralization (IC50) (nM)

binder | measuredAttribute | modifier | value
GL20 IgG (antibody, V domains shown) VH: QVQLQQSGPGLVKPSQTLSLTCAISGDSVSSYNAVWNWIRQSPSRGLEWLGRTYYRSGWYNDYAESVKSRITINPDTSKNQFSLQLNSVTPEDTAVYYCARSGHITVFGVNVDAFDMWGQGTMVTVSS VL: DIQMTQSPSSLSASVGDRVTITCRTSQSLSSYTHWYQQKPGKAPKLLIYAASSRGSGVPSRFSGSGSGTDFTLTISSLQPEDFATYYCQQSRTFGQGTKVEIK | Neutralization (IC50) | > | 1000
FBC39 IgG (antibody, V domains shown) VH: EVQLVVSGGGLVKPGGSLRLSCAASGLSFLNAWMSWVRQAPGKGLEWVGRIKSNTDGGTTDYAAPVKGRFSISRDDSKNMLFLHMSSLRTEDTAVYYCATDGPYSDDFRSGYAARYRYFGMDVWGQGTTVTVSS VL: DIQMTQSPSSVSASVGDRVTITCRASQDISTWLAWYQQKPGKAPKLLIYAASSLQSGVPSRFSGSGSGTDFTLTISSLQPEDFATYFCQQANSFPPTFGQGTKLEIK | Neutralization (IC50) | = | 0.2
FBD94 IgG (antibody, V domains shown) VH: EVQLVESGGGLVQPGRSLRLSCAVSGFIFEDYAINWVRQAPGKGLEWVSIISWDSGRIGYADSVRGRFTISRDNAKNSSFLQMNSLRPEDTAVYYCVKDMLAYYYDGSGIRYNLYGMDVWGQGTTVTVSS VL: EIVLTQSPATLSLSPGERATLSCRASRSITTFLAWYQQKPGQAPRLLIYDASNRATGVPARFSGSGSGTDFTLTINSLEPDDFAIYYCQQRDHWPPIFGQGTRLEIK | Neutralization (IC50) | = | 0.2
FY1 IgG (antibody, V domains shown) VH: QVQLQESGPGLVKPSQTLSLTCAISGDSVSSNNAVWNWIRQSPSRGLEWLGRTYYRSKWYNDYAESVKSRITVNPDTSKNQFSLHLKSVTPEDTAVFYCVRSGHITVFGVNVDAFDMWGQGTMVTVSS VL: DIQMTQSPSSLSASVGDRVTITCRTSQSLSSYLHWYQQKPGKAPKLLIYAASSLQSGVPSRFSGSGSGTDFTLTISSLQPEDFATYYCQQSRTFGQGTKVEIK | Neutralization (IC50) | > | 1000
